This section presents molecules with their documented Emax values.
# MEASURED_TARGET: M1 acetylcholine receptors (ml receptors in CHO cells) (Homo sapiens, UniProt P11229)
# Sequence (P11229 whole entry): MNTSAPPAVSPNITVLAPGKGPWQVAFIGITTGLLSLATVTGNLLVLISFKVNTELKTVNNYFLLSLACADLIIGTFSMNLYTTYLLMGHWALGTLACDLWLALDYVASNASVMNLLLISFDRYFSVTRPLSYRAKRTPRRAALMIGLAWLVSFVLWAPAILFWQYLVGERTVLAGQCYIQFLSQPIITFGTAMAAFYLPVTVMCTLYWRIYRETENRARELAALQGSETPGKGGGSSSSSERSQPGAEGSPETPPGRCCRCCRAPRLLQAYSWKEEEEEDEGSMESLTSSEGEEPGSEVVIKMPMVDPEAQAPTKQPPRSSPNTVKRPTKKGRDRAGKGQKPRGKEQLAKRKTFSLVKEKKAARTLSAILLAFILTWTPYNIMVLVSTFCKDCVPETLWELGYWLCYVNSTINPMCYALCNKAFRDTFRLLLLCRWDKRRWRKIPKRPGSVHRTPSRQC
# ASSAY_TEXT: stimulation of phosphoinositide (PI) hydrolysis in transfected CHO cells
# Format: cell-based
# STUDY_CONDITIONS: 1 h, read-out: % PI Hydrolysis ml receptors in CHO cells 30 × Ki (μM), carb = 100%
PROPERTY_MEASURED: Emax (%)

[[record]]
molecule = "c1ccc(Cn2cnc3c(OC4CN5CCC4CC5)nccc32)cc1 (stereo not shown) [Example 5]"
property_measured = "Emax"
measured = 6.8

[[record]]
molecule = "c1ccc(Cn2cnc3c(OC4CN5CCC4CC5)nccc32)cc1 (single isomer, unassigned; (-)) [Example 7]"
property_measured = "Emax"
measured = 18.4

[[record]]
molecule = "Cn1cnc2c(O[C@@H]3CN4CC[C@H]3C4)nccc21 (relative stereo) [Example 1]"
property_measured = "Emax"
measured = 25

[[record]]
molecule = "Cn1cnc2c(O[C@@H]3CN4CC[C@H]3C4)nccc21 (single isomer, unassigned) [Example 3]"
property_measured = "Emax"
measured = 20.6

